The reported measurements were obtained from ChEMBL document CHEMBL3433997.

target: Hexose transporter 1 (Plasmodium falciparum); test: ST_JUDE_LEISH: Cytotoxicity at 2uM final concentration against transgenic Leishmania Mexicana promastigotes LmPfHT that are glucose transport deficient and complemented with the Plasmodium falciparum hexose transporter. Activity is measured by DNA content using SYBR green in vitro; assay type: functional
Measured inhibition of individual entries
Numbers only; they are read as %.

Take a look at these entries with their results.
Cc1ccc(C)c(S(=O)(=O)NCC2CCN(Cc3ccc(O)cc3)CC2)c1    7.78
COc1ccc2nccc([C@@H](O)CN3CCC(NC(=O)C(c4ccsc4)N4CCN(c5ccccc5)CC4)CC3)c2c1 (some centres undefined)    3.07
CC=Cc1cc(Cc2c[nH]c(=N)[nH]c2=N)cc(CCC)c1OC    8.99

Pending compound:
Input: inhibition lookup needed for NC1CCN(Cc2cccc(-c3ccc(-c4nc5ccccc5[nH]4)s3)c2)C1 (centres undefined) , thanks.
Output: 2.41

====

biological target: Glucose transporter (Leishmania mexicana) (UniProt O61059); experiment: ST_JUDE_LEISH: Cytotoxicity at 2uM final concentration against transgenic Leishmania Mexicana promastigotes LmGT2 that are glucose transport deficient and complemented with the L. Mexicana glucose transporter 2. Activity is measured by DNA content using SYBR green in vitro; type: functional
Measured inhibition of individual entries
Numbers only; they are read as %.

c1ccc(-c2nc(Nc3ccncc3)sc2-c2ccccc2)cc1    1.21
CN(C)C(=O)c1cccc(COc2ccc(N3C(N)=NC(N)=NC3(C)C)cc2Cl)c1    -0.58
O=C(NCc1ccc(Cl)c(Cl)c1)[C@H]1CNCCN1C(=O)c1ccccc1    2.44
Cc1sc(NC(=O)Cc2cccc(C(F)(F)F)c2)nc1-c1cccc(Cl)c1    8.34
CC(C)(C)c1ccc(C(=O)N2CCC3(CC2)C(=O)N(CC(=O)NCC2CCCO2)CN3c2ccccc2)cc1 (stereo not given)    0.02

Pending compound:
Input: Form entry - test system: Glucose transporter (Leishmania mexicana) (UniProt O61059); read-out: inhibition; compound: `Cc1c(CNCCCNc2cc(=O)c3ccccc3[nH]2)sc(C(F)F)c1Br`
Output: -1.09

====

Measured inhibition of individual entries
biological target: Solute carrier family 2, facilitated glucose transporter member 1 (Homo sapiens); assay: ST_JUDE_LEISH: Cytotoxicity at 2uM final concentration against transgenic Leishmania Mexicana promastigotes LmGLUT1 that are glucose transport deficient and complemented with the human glucose transporter GLUT1. Activity is measured by DNA content using SYBR green in vitro; assay type: functional
Numbers only; they are read as %.

Take a look at these entries with their results.
CCCNCc1ccc(-c2ccc(CN(Cc3cnc(C)cn3)C(=O)/C=C/c3ccccc3C)cc2)nc1    2.17
Oc1ccc(Br)cc1-c1nc2ccc(Cl)cc2nc1-c1cc(Br)ccc1O    1.9
CN(C)CCCOc1cc(NC(=O)Nc2ccc(-c3ccncc3)c3ccccc23)ccc1I    6.91

Pending compound:
Input: Form entry - test system: Solute carrier family 2, facilitated glucose transporter member 1 (Homo sapiens); read-out: inhibition; compound: `N=C(NCc1ccc(O)cc1)Nc1nc(-c2ccc(OCCCn3ccnc3)cc2)cs1`
Output: 1.63

====

molecular target: Glucose transporter (Leishmania mexicana) (UniProt O61059); assay: ST_JUDE_LEISH: Cytotoxicity at 2uM final concentration against transgenic Leishmania Mexicana promastigotes LmGT2 that are glucose transport deficient and complemented with the L. Mexicana glucose transporter 2. Activity is measured by DNA content using SYBR green in vitro; format: functional
Readout Kind: inhibition (%)
Numbers only; they are read as %.

Take a look at these entries with their results.
COc1ccc2cc(C(c3nnnn3CC3CCCO3)N3CCc4ccccc43)c(=O)[nH]c2c1 (stereo not given)    2.23
CCOc1cc(C(=O)NC2CC(C)(C)NC(C)(C)C2)ccc1-c1nc2cc(Cl)ccc2[nH]1    1.1
Cc1cc(N[C@@H](CC(C)C)C(=O)NCCc2ccccc2)nc(NCCc2ccc(F)cc2)n1    -1.31
CCCCCCn1c(Sc2ccc(C#N)c([N+](=O)[O-])c2)nnc1-c1ccc(OC)cc1    -3.74
CCN1CCC(N(CCCCCCc2ccc(C(F)(F)F)cc2)C(=O)Cn2c(CCc3cccc(F)c3F)cc(=O)c3ccccc32)CC1    2.53

Pending compound:
Input: inhibition lookup needed for COC(=O)c1cc(OC2CCOC2=O)cc2c1OC(C)(C)O2 (stereo not given) , thanks.
Output: 8.43
